TARGET_SYSTEM: hCMV gH + gL + UL128 + UL130 + UL131A (co-expressed in HEK293T cells) (human cytomegalovirus), P12824
ASSAY_NOTES: competitor: 2F4-biotin; cell staining
SETTINGS: remark: other sources report otherwise
ASSAY_ENDPOINT: Inhibition of binding (%)
Lab book: enter the figure in %, no units written.

Study these solved cases before continuing.
[
  {
    "BINDER": "9I6 (antibody, V domains shown) VH: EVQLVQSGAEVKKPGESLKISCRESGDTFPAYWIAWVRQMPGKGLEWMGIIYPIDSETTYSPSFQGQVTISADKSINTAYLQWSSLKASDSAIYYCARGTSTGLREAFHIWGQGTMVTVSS VL: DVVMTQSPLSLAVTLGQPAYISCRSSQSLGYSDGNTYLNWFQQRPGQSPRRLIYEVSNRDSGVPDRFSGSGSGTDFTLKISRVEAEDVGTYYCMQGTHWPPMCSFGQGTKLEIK",
    "ASSAY_RESULT": 0
  },
  {
    "BINDER": "10F7 (antibody, V domains shown) VH: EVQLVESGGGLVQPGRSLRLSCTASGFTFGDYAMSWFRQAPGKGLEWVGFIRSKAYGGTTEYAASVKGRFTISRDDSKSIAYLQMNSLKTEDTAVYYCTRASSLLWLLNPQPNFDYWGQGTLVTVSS VL: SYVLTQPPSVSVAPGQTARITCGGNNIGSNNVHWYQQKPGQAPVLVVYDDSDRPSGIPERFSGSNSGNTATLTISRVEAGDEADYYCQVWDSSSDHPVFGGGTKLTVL",
    "ASSAY_RESULT": 100
  },
  {
    "BINDER": "4N10 (antibody, V domains shown) VH: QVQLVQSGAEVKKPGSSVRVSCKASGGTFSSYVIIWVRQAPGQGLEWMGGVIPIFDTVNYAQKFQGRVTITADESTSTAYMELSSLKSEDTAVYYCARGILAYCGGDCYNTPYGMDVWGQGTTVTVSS VL: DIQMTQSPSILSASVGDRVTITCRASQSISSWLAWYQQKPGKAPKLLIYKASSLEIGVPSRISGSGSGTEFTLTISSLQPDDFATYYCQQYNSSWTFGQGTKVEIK",
    "ASSAY_RESULT": 0
  }
]

What value of measured Inhibition of binding (%) is listed for 8J16 (antibody, V domains shown) VH: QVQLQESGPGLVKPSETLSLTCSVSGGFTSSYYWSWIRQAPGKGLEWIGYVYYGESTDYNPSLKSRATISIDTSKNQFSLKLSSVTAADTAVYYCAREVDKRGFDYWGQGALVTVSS VL: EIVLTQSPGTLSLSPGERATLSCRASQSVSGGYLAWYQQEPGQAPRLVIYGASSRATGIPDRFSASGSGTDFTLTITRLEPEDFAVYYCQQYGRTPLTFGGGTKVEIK ? 0
